# log10(IC50) per record follows
# system: FGFR3 (h) (Homo sapiens)
# Sequence (P22607 23-806): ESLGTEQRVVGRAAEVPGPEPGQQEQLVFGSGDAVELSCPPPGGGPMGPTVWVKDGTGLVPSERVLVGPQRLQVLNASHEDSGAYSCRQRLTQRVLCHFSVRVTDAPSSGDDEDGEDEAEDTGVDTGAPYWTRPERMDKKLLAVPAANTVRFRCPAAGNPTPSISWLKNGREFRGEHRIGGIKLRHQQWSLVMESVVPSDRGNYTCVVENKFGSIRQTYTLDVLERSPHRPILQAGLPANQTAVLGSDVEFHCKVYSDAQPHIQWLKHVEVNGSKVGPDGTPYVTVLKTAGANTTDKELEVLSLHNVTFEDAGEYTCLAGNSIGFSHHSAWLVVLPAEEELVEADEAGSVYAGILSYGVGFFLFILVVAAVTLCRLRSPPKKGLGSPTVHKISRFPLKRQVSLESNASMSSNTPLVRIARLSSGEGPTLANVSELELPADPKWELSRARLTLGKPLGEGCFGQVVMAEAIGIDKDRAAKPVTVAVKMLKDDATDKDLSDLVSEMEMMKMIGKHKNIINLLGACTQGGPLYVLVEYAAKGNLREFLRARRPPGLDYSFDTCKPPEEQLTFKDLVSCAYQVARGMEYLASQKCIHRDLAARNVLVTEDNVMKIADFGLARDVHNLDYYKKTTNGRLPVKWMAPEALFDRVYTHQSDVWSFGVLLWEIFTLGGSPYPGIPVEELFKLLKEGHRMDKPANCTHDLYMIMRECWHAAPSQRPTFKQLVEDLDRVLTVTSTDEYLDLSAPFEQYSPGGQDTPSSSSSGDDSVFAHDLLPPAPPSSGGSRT
# assay.protocol: FGFR3 (enzymatic assay), TR-FRET
# Format: biochemical
# measurement.conditions: average values if tested multiple times, read-out: FGFR 3 pIC50 (converted)
property.name: log10(IC50) (log10 of the value in nM)

1) COc1cc(OC)c(F)c(N(CCO)c2ccc3ncc(-c4cnn(C)c4)nc3n2)c1 [Compound 40] : -0.19
2) COc1cc(O)cc(N(Cc2ncc[nH]2)c2ccc3ncc(-c4cnn(C)c4)nc3n2)c1F [Compound 95] : -0.35
3) COc1cc(OC)c(F)c(N(CCCO)c2ccc3ncc(-c4cnn(C)c4)nc3n2)c1F (single isomer, unassigned) [Compound 16] : 1.40
4) COc1cc(OC)c(F)c(N(Cc2ncc[nH]2)c2ccc3ncc(-c4cnn(Cc5ncc[nH]5)c4)nc3n2)c1 [Compound 100] : 0.11
5) COc1cc(OC)c(F)c(N(CCO)c2ccc3ncc(-c4cnn(C)c4)nc3n2)c1F [Compound 20] : 0.20
6) COc1cc(/N=c2\ccc3ncc(-c4cnn(C)c4)nc3n2CC2CCC(=O)N2)c(F)c(OC)c1 (stereo not shown) [Compound 53] : 0.04
7) COc1cc(OC)cc(N(Cc2ncc[nH]2)c2ccc3ncc(-c4cnn(C)c4)nc3n2)c1 [Compound 24] : -0.22
8) COc1cc(OC)cc(N(CCCO)c2ccc3ncc(-c4cnn(C)c4)nc3n2)c1 [Compound 18] : 0.00
9) COc1cc(OC)c(F)c(N(Cc2ncccn2)c2ccc3ncc(-c4cnn(C)c4)nc3n2)c1 [Compound 9] : 1.20
10) COc1cc(/N=c2\ccc3ncc(-c4cnn(C)c4)nc3n2Cc2ccnn2C)c(F)c(OC)c1 [Compound 114] : -0.14
11) COc1cc(OC)c(F)c(N(CCNC(C)C)c2ccc3ncc(-c4cnn(C)c4)nc3n2)c1F [Compound 5] : 0.20
12) COCC(O)CN(c1ccc2ncc(-c3cnn(C)c3)nc2n1)c1cc(OC)cc(OC)c1F (single isomer, unassigned) [Compound 59] : 0.09
13) COc1cc(OC)cc(N(Cc2nc[nH]n2)c2ccc3ncc(-c4cnn(C)c4)nc3n2)c1 [Compound 71] : -0.11
14) COc1cc(OC)cc(N(Cc2ncccn2)c2ccc3ncc(-c4cnn(C)c4)nc3n2)c1 [Compound 12] : 0.40
15) COc1ccc(F)c(N(Cc2ncc[nH]2)c2ccc3ncc(-c4cnn(C)c4)nc3n2)c1Cl [Compound 73] : 0.45
